Reported values of IC50 for individual entries
Target: cellular BACE1 in CHOK1-huAPP cells
Test: cell-based or functional assay
Give the value in nM but do not write nM after it.

// known answers, use as guide
binder="2H8.35 (antibody, human IgG1, V domains shown, human IgG1/kappa; also called 2H8_HCvar5 + 2H8_LCvar6) VH: EVQLQQPGAEVVRPGTSVKLSCKASGYTFTNYWMHWVKQRPGQGLEWIGMIDPSDNYTKYNQKLKGKATLTVDTSSSTANMHVNSLTSEDSAVYFCARSGVAFPYWGQGTLVTVSA VL: DIQMTQSQKFMSKSVGDRVSVTCKASQNVGSNVAWYQQKSGQSPKSLIYSASHRYSGVPDRFTGSGSGTDFTLTISNVQSEDLADYFCQQYNSYPYTFGGGTRLEIK" test_result=41
binder="2H8.39 (antibody, human IgG1, V domains shown, human IgG1/kappa; also called 2H8_HCvar3 + 2H8_LCvar7) VH: EVQLQQSGAELVRPGTSVKLSCKASGYTFTSYWIHWVKQRPGQGLEWIGMIDPSDSYTKYNQKFKDKATLTVDTSSSTTYMHLSSLTSEDSAVYYCARSGVAFPYWGQRTLVTVSA VL: DILMTQSQKFMSTSVGDRVSVTCKASQNVGRNVAWYQQISGQSPKPLIYSASHRYSGVPDRFTGSGSGTDFTLTISNVQSEDLVEFFCQQYNSYPYTFGGGTKLEIK" test_result=43
binder="2H8.04 (antibody, human IgG1, V domains shown, human IgG1/kappa; also called 2H8_HCvar4 + 2H8_LC) VH: EIQLQQSGTELVRPGTSVKLSCKASGYTFTNYWMHWVKQRPGQGLEWIGMIDPSAAYTNYNQNFKGKATLTVDTSSGTAYMQLSSLTSEDSAVYYCARSGVAFPYWGQGTTVTVSS VL: DIVMTQSQKFMSKSVGDTVSVTCKASQDVGRNVAWYQQKSGQSPKSLIYSASHRYSGVPDRFTGSGSGTDFTLTISNVQSEDLADYFCQQYNSYPYTFGGGTRLEIK" test_result=26
binder="2H8 (antibody, human IgG1, V domains shown, chimeric, human IgG1/kappa; also called Clone 2H8; 2H8.01) VH: EVQLQQSGPELVKPGASVKLSCKASGYTFTNFWIHWLKQRPGQGLEWIGMIDPSDSYTKYNQKFKAKATLTVDTSSSTTYMHLSSLTSEDSAVYYCARSGVAFPYWGQRTLVTVSA VL: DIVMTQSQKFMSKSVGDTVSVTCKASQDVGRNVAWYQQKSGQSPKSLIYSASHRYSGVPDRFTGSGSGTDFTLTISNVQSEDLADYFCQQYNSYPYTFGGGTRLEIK" test_result=25

# next binder below
Query: Return reported IC50; argument: 2H8.41 (antibody, human IgG1, V domains shown, human IgG1/kappa; also called 2H8_HCvar5 + 2H8_LCvar7) VH: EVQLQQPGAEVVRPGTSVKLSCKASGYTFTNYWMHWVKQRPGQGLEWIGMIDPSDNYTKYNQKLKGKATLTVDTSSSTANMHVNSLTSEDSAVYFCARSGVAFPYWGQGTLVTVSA VL: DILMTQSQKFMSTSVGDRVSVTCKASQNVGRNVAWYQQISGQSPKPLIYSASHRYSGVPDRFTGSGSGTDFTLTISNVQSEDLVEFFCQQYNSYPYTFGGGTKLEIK
Response: 36
